TGI: recorded values
Tested on: 786-0 renal
Assay: NCI tumour cell line growth inhibition, 48 h

Known TGI results, listed for orientation:
> print(dat)
                                   compound  study.system  readout.name  reported.value
1  O=C(COc1cccc(/C=C2\COc3ccccc3C2=O)c1)Nc1nccs1   786-0 renal           TGI         4.14 µM
2  O=C1C2C=CC1C1C(=O)OC(=O)C21 (stereo unspecified)   786-0 renal           TGI        > 100 µM
3  COc1cc(OC)c2c(c1OC)OCC(Cc1ccc(O)cc1)C2=O (stereo unspecified)   786-0 renal           TGI         > 25 µM
4  COc1cccc(/C=N\Nc2ccc([N+](=O)[O-])cn2)c1O   786-0 renal           TGI         28.9 µM
5                O=C1CCCC/C1=C/C=C/c1ccccc1   786-0 renal           TGI        > 100 µM

I'd like to know its TGI. The compound in question is CCCCCCCCCCCCCCCc1cc(O)ccc1N 37.2 µM
